# System: Ipomoea hederacea (IPOHE)
# ASSAY COMMENT: Post-emergence Test (Table B2), IPOHE
# Assay type: in vivo
# Parameters: key: five-point scale: 5=81-100%, 4=61-80%, 3=41-60%, 2=21-40%, 1=0-20% damage
# ASSAY CONDITIONS: rate 1000 g/Ha, evaluated after 13 days
READOUT NAME: percentage damage caused to the plant, IPOHE

1. CCn1c(Cc2cccc(SC)c2)cc(=O)c(C(=O)O)c1-c1ccc(Cl)c(Cl)c1; 0
2. CCn1c(Cc2cc(O)cc(F)n2)cc(=O)c(C(=O)O)c1-c1ccc(Cl)c(Cl)c1; 0
3. CCn1c(Cc2ccc(F)c(C(=O)O)n2)cc(=O)c(C(=O)O)c1-c1ccc(Cl)c(Cl)c1; 0
4. CCn1c(Cc2cccc(OC)c2OC)cc(=O)c(C(=O)O)c1-c1ccc(Cl)c(Cl)c1; 0
5. CCn1c(Cc2cccc(C(C)C)c2)cc(=O)c(C(=O)O)c1-c1ccc(Cl)c(Cl)c1; 0
6. CCn1c(Cc2ccc(OC)c(OC)c2)cc(=O)c(C(=O)O)c1-c1ccc(Cl)c(Cl)c1; 0
7. CCn1c(Cc2ccc(C3CC3)cc2)cc(=O)c(C(=O)O)c1-c1ccc(Cl)c(Cl)c1; 0
8. CCn1c(Cc2ccccc2OC)cc(=O)c(C(=O)O)c1-c1ccc(Cl)c(Cl)c1; 0
9. CCn1c(Cc2ccc(O)nn2)cc(=O)c(C(=O)O)c1-c1ccc(Cl)c(Cl)c1; 0
